- System: P. infestans
- procedure.summary: microbe, parasite or virus in culture
- Format: cell-based, Phytophthora infestans
- test.context: Phytophthora infestans, 24 h, read-out: Aktivität gegenüber P. infestans
Consider the following compounds; for each one, report its inhibition of growth at 10 µg/mL.

# annotated cases, reported inhibition of growth at 10 µg/mL shown
{"compound": "Oc1c(Cl)cc(F)cc1[Se]c1cc(F)cc(Cl)c1O", "inhibition of growth at 10 µg/mL": "> 75%"}
{"compound": "Cc1cc(C(C)(C)C)cc([Se]c2cc(C(C)(C)C)cc(C)c2O)c1O", "inhibition of growth at 10 µg/mL": "0 to 25%"}
{"compound": "COc1cc(OC)c([Se]c2cc(OC)c(OC)cc2OC)cc1OC", "inhibition of growth at 10 µg/mL": "0 to 25%"}
{"compound": "COc1cc(C)cc([Se]c2cc(C)cc(OC)c2O)c1O", "inhibition of growth at 10 µg/mL": "0 to 25%"}

Hi there! I need inhibition of growth at 10 µg/mL for each item below, if you can.
1. Cc1cc(Cl)cc([Se]c2cc(Cl)cc(C)c2O)c1O
2. Cc1cc(C)c(O)c([Se]c2c(C)c(C)cc(C)c2O)c1C
3. CC(C)(C)c1cc([Se]c2cc(C(C)(C)C)cc(C(C)(C)C)c2O)c(O)c(C(C)(C)C)c1

Output line:
1. > 75%
2. 25 to 50%
3. 0 to 25%

Batch request: inhibition of growth at 10 µg/mL for each of the following compounds.
1. Cc1c(Cl)cc(C(C)C)c(O)c1[Se]c1c(C)c(Cl)cc(C(C)C)c1O
2. CCC(C)(C)c1cc([Se]c2cc(C(C)(C)CC)cc(C(C)(C)CC)c2O)c(O)c(C(C)(C)CC)c1
3. Cc1cc(C)c(O)c([Se]c2cc(C)cc(C)c2O)c1 [Verbindung 12, Bis(3,5-dimethyl-2-hydroxyphenyl)selen]
4. CCc1cc([Se]c2cc(CC)cc(C(C)(C)C)c2O)c(O)c(C(C)(C)C)c1
5. Cc1cc([Se]c2cc(C)c(O)c(C)c2)cc(C)c1O [Verbindung 19, Bis(3,5-dimethyl-4-hydroxyphenyl)selen]
6. Cc1cc(C(C)C)c(O)c([Se]c2c(C)c(C)cc(C(C)C)c2O)c1C
7. Cc1cc(Br)c(O)c([Se]c2cc(C)cc(Br)c2O)c1

Output line:
0 to 25%
0 to 25%
> 75%
0 to 25%
50 to 75%
0 to 25%
0 to 25%

* * *

- System: M. grisea CM
- procedure.summary: microbe, parasite or virus in culture
- Format: cell-based, Magnaporthe grisea
- test.context: Pyricularia grisea, 24 h, read-out: Aktivität gegenüber M. grisea CM
metric.name: inhibition of growth at 5 µg/mL

{"compound": "CCc1cc([Se]c2cc(CC)cc(C(C)(C)C)c2O)c(O)c(C(C)(C)C)c1", "result": "0 to 25%"}
{"compound": "Cc1cc([Se]c2cc(C)c(O)c(C)c2)cc(C)c1O [Verbindung 19, Bis(3,5-dimethyl-4-hydroxyphenyl)selen]", "result": "> 75%"}
{"compound": "CCC(C)(C)c1cc([Se]c2cc(C(C)(C)CC)cc(C(C)(C)CC)c2O)c(O)c(C(C)(C)CC)c1", "result": "0 to 25%"}
{"compound": "Oc1c(Cl)cc(F)cc1[Se]c1cc(F)cc(Cl)c1O", "result": "> 75%"}
{"compound": "Cc1cc(Cl)cc([Se]c2cc(Cl)cc(C)c2O)c1O", "result": "> 75%"}

Report inhibition of growth at 5 µg/mL for every entry below.
1. Cc1cc(C)c(O)c([Se]c2c(C)c(C)cc(C)c2O)c1C
2. Cc1cc(C)c(O)c([Se]c2cc(C)cc(C)c2O)c1 [Verbindung 12, Bis(3,5-dimethyl-2-hydroxyphenyl)selen]
3. Cc1cc(C(C)C)c(O)c([Se]c2c(C)c(C)cc(C(C)C)c2O)c1C
4. COc1cc(C)cc([Se]c2cc(C)cc(OC)c2O)c1O
5. CC(C)(C)c1cc([Se]c2cc(C(C)(C)C)cc(C(C)(C)C)c2O)c(O)c(C(C)(C)C)c1
6. COc1cc(OC)c([Se]c2cc(OC)c(OC)cc2OC)cc1OC
7. Cc1cc(Br)c(O)c([Se]c2cc(C)cc(Br)c2O)c1
8. Cc1cc(C(C)(C)C)cc([Se]c2cc(C(C)(C)C)cc(C)c2O)c1O

Output line:
1: 0 to 25%; 2: > 75%; 3: 0 to 25%; 4: 25 to 50%; 5: 0 to 25%; 6: 25 to 50%; 7: > 75%; 8: > 75%

Input line: Tell us which inhibition of growth at 5 µg/mL value is on record for Cc1c(Cl)cc(C(C)C)c(O)c1[Se]c1c(C)c(Cl)cc(C(C)C)c1O
Output line: 50 to 75%

* * *

- Tested on: Mucor miehei
- procedure.summary: Growth test in microtiter plates, HA medium, 24 h, visual evaluation
- Type: cell-based
- Parameters: key: +: kein Wachstum im Vergleich zur Wachstumskontrolle; -: Wachstum wie Wachstumskontrolle
- test.context: 10µg/mL
metric.name: Aktivität gegenüber M. miehei

Example cases with answers are listed next.
{"molecule": "CCc1cc([Se]c2cc(CC)cc(C(C)(C)C)c2O)c(O)c(C(C)(C)C)c1 [Verbindung 15]", "Aktivität gegenüber M. miehei": "-"}
{"molecule": "COc1cc(OC)c([Se]c2cc(OC)c(OC)cc2OC)cc1OC [Verbindung 26, Bis(2,4,5-trimethoxyphenyl)selen]", "Aktivität gegenüber M. miehei": "-"}
{"molecule": "Cc1cc(C(C)C)c(O)c([Se]c2c(C)c(C)cc(C(C)C)c2O)c1C [Verbindung 18]", "Aktivität gegenüber M. miehei": "-"}
{"molecule": "Cc1cc(Br)c(O)c([Se]c2cc(C)cc(Br)c2O)c1 [Verbindung 23]", "Aktivität gegenüber M. miehei": "-"}
{"molecule": "Cc1cc(C)c(O)c([Se]c2cc(C)cc(C)c2O)c1 [Verbindung 12, Bis(3,5-dimethyl-2-hydroxyphenyl)selen]", "Aktivität gegenüber M. miehei": "-"}
{"molecule": "CCC(C)(C)c1cc([Se]c2cc(C(C)(C)CC)cc(C(C)(C)CC)c2O)c(O)c(C(C)(C)CC)c1 [Verbindung 16]", "Aktivität gegenüber M. miehei": "-"}
{"molecule": "Cc1cc([Se]c2cc(C)c(O)c(C)c2)cc(C)c1O [Verbindung 19, Bis(3,5-dimethyl-4-hydroxyphenyl)selen]", "Aktivität gegenüber M. miehei": "+"}
{"molecule": "Cc1c(Cl)cc(C(C)C)c(O)c1[Se]c1c(C)c(Cl)cc(C(C)C)c1O [Verbindung 21]", "Aktivität gegenüber M. miehei": "-"}
{"molecule": "COc1cc(C)c([Se]c2cc(OC)c(OC)cc2C)cc1OC [Verbindung 27, Bis(3,4-dimethoxy-6-methylphenyl)selen]", "Aktivität gegenüber M. miehei": "-"}
{"molecule": "COc1cc(C)cc([Se]c2cc(C)cc(OC)c2O)c1O [Verbindung 20]", "Aktivität gegenüber M. miehei": "-"}

I have 7 molecules here; please give me Aktivität gegenüber M. miehei for each one.
1. Cc1cc(C)c(O)c([Se]c2c(C)c(C)cc(C)c2O)c1C [Verbindung 17]
2. COc1cc(C)c([Se]c2c(C)cc(OC)c(OC)c2OC)c(OC)c1OC [Verbindung 28]
3. Oc1c(Cl)cc(F)cc1[Se]c1cc(F)cc(Cl)c1O [Verbindung 24]
4. CC(C)(C)c1cc([Se]c2cc(C(C)(C)C)cc(C(C)(C)C)c2O)c(O)c(C(C)(C)C)c1 [Verbindung 14]
5. Oc1c(F)cc(F)cc1[Se]c1cc(F)cc(F)c1O [Verbindung 25, Bis(3,5-difluoro-2-hydroxyphenyl)selen]
6. Cc1cc(C(C)(C)C)cc([Se]c2cc(C(C)(C)C)cc(C)c2O)c1O [Verbindung 13]
7. Cc1cc(Cl)cc([Se]c2cc(Cl)cc(C)c2O)c1O [Verbindung 22]

Output line:
-
-
+
-
+
-
-

* * *

So I've got a bunch of compounds here, and I need their inhibition of growth at 5 µg/mL values.
- Test system: P. infestans
- procedure.summary: microbe, parasite or virus in culture
- Format: cell-based, Phytophthora infestans
- test.context: Phytophthora infestans, 24 h, read-out: Aktivität gegenüber P. infestans

Sample answers from the record:
{"compound": "Cc1cc(C(C)C)c(O)c([Se]c2c(C)c(C)cc(C(C)C)c2O)c1C", "metric.name": "inhibition of growth at 5 µg/mL", "result": "0 to 25%"}
{"compound": "Cc1c(Cl)cc(C(C)C)c(O)c1[Se]c1c(C)c(Cl)cc(C(C)C)c1O", "metric.name": "inhibition of growth at 5 µg/mL", "result": "0 to 25%"}
{"compound": "Oc1c(Cl)cc(F)cc1[Se]c1cc(F)cc(Cl)c1O", "metric.name": "inhibition of growth at 5 µg/mL", "result": "> 75%"}
{"compound": "Cc1cc([Se]c2cc(C)c(O)c(C)c2)cc(C)c1O [Verbindung 19, Bis(3,5-dimethyl-4-hydroxyphenyl)selen]", "metric.name": "inhibition of growth at 5 µg/mL", "result": "0 to 25%"}
{"compound": "Cc1cc(C)c(O)c([Se]c2c(C)c(C)cc(C)c2O)c1C", "metric.name": "inhibition of growth at 5 µg/mL", "result": "0 to 25%"}

Read the next record carefully.
Input line: Kindly indicate its recorded inhibition of growth at 5 µg/mL. Item: COc1cc(OC)c([Se]c2cc(OC)c(OC)cc2OC)cc1OC
Output line: 0 to 25%
